// provenance: patent US12522576B2

Test: D9 solubility in the liquors at isolation temperature
Type: physicochemical
Settings: crystallisation liquors over suspended solid, 25 °C, organic solvent or mixture, thermodynamic from solid, batch 2, IPA/water (95:5), seed G/H, heat T 55, isolation T 25, SP 13, 10.0 mL/g
result.type: solubility
Be sure to follow the number with its unit.

The recorded solubility for CCCCCc1cc(OC(=O)c2ccc3ccccc3c2)c2c(c1)OC(C)(C)[C@@H]1CCC(C)=C[C@@H]21 [Form B] is 5600 µg/mL

###

Assay: D9 solubility in the liquors at isolation temperature
Assay type: physicochemical
Settings: DMSO/MeOH (3:7), 25 °C, organic solvent or mixture, thermodynamic from solid, batch 5, DMSO/MeOH (3:7), seed D, heat T 50, isolation T 25, SP 2, 7.1 mL/g
result.type: solubility (µg/mL)
Answers are plain numbers, in µg/mL.

Given item CCCCCc1cc(OC(=O)c2ccc3ccccc3c2)c2c(c1)OC(C)(C)[C@@H]1CCC(C)=C[C@@H]21 [Form B] , the value recorded as its solubility is 7500

###

Experiment: D9 solubility in the liquors at isolation temperature
Format: physicochemical
Conditions: crystallisation liquors over suspended solid, 25 °C, organic solvent or mixture, thermodynamic from solid, batch 5; Toluene/EtOH (1:9); seed H; heat T 40; isolation T 25; 10.0 mL/g; SP 19; Exp 54
result.type: solubility

Notebook: CCCCCc1cc(OC(=O)c2ccc3ccccc3c2)c2c(c1)OC(C)(C)[C@@H]1CCC(C)=C[C@@H]21 [Form H] , solubility read as 19.6 mg/mL

###

Experiment: D9 solubility in the liquors at isolation temperature
Format: physicochemical
Conditions: Anisole/MeOH (1:9), 5 °C, organic solvent or mixture, thermodynamic from solid, batch 5, Anisole/MeOH (1:9), seed G, heat T 40, isolation T 5, SP 10, 30.0 mL/g
Procedure: At the end of each experiment, suspensions were equilibrated at the isolation temperature (25 or 5° C.) for at least 18 hours and the solids and liquors separated by centrifugation at the isolation temperature. The Exo/D9/D8 ratio (Exo-D9-THC-naphthoylester impurity/D9-THC-naphthoylester/D8-THC-naphthoylester) was determined in both the isolated solids and the liquors, from which the % Exo-depletion in the isolated solids was calculated. […]
result.type: solubility (µg/mL)
Give bare numbers, in µg/mL.

The measured solubility associated with CCCCCc1cc(OC(=O)c2ccc3ccccc3c2)c2c(c1)OC(C)(C)[C@@H]1CCC(C)=C[C@@H]21 [Form B] reads 9800

###

Assay: Gravimetric solubility
Type: physicochemical
Conditions: 20 °C, thermodynamic from solid; solvent Water; RT; read-out: Gravimetric Solubility at RT
result.type: solubility

Just so you know, measured solubility for CCCCCc1cc(OC(=O)c2ccc3ccccc3c2)c2c(c1)OC(C)(C)[C@@H]1CCC(C)=C[C@@H]21 [Form B] came out at < 1000 µg/mL

###

Assay: D9 solubility in the liquors at isolation temperature
Assay type: physicochemical
Conditions: liquors of the equilibrated crystallisation suspension, 25 °C, organic solvent or mixture, thermodynamic from solid, Toluene/EtOH (1:9); isolation 25 °C; SP 16; 9.9 mL/g; read-out: D9 Solubility at Isolation T
result.type: solubility (mg/mL)
Give bare numbers, in mg/mL.

Data point: CCCCCc1cc(OC(=O)c2ccc3ccccc3c2)c2c(c1)OC(C)(C)[C@@H]1CCC(C)=C[C@@H]21 [Form H] ; solubility = 11.1
